I'd be grateful if you could share measured human MASP2 IC50 for these entries.
Test target: Recombinant human MASP2 enzyme (fragment corresponding to amino acids 297-686, C-terminal His Tag) (human, UniProt O00187 297-686)
Sequence (O00187 other isoform, or with tags, fused parts or gaps limits assumed): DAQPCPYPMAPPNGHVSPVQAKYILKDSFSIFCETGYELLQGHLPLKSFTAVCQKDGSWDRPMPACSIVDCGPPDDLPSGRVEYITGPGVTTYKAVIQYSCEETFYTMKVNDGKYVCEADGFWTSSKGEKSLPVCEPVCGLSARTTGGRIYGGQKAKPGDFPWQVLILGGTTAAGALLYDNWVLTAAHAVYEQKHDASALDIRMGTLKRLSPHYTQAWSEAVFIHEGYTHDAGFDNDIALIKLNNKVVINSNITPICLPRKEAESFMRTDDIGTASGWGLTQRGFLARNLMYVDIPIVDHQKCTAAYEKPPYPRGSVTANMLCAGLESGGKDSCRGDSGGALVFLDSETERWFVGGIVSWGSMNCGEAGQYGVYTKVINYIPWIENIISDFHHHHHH
Test summary: cell-based or functional assay
Bridge positions count the residues as written; N and C are the ends. Square brackets hold non-standard residues; d marks the D form. Ends that are not written are not given here. Pro(cis-4-CF3) = O=C(O)[C@@H]1C[C@H](C(F)(F)F)CN1; tBuAla = CC(C)(C)C[C@H](N)C(=O)O
Express the result in nM but write the number alone.

Exam item: Give human MASP2 IC50 for the following binder: AICSRS[tBuAla]P[Pro(cis-4-CF3)]ICIPD-NH2 (disulfide 3-11; N-terminus assumed; SMILES CC[C@H](C)[C@H](NC(=O)[C@H](C)N)C(=O)N[C@H]1CSSC[C@@H](C(=O)N[C@H](C(=O)N2CCC[C@H]2C(=O)N[C@@H](CC(=O)O)C(N)=O)[C@@H](C)CC)NC(=O)[C@H]([C@@H](C)CC)NC(=O)[C@@H]2C[C@H](C(F)(F)F)CN2C(=O)[C@@H]2CCCN2C(=O)[C@H](CC(C)(C)C)NC(=O)[C@H](CO)NC(=O)[C@H](CCCNC(=N)N)NC(=O)[C@H](CO)NC1=O) [AIC+SRS-((tBu)A)-P-((4-CF3)P)-IC+IPD-NH2]
Marked response: 930

Exam item: Give human MASP2 IC50 for the following binder: AICSRS[tBuAla]PPICIDD-OH (disulfide 3-11; N-terminus assumed; SMILES CC[C@H](C)[C@H](NC(=O)[C@H](C)N)C(=O)N[C@H]1CSSC[C@@H](C(=O)N[C@H](C(=O)N[C@@H](CC(=O)O)C(=O)N[C@@H](CC(=O)O)C(=O)O)[C@@H](C)CC)NC(=O)[C@H]([C@@H](C)CC)NC(=O)[C@@H]2CCCN2C(=O)[C@@H]2CCCN2C(=O)[C@H](CC(C)(C)C)NC(=O)[C@H](CO)NC(=O)[C@H](CCCNC(=N)N)NC(=O)[C@H](CO)NC1=O) [AIC+SRS-((tBu)A)-PPIC+IDD-OH]
Marked response: 61

Origin of the recorded values: patent US20210246166A1
